# credit: paper PMC9229294

- System: THP1-Blue cells
- ASSAY_NOTES: Cytotoxicity, CellTiter-Glo, THP1-Blue cells
- Assay type: cell-based, human
- RUN_PARAMETERS: THP1-Blue cells; N.T. = no cytotoxicity at 50 µM
QUANTITY_MEASURED: IC50

Return reported IC50; argument: CC1CC(c2ccccc2)=NN(CC(=O)Nc2ccc(Br)cc2)C1=O (stereo not shown) > 50 µM

----------
- ASSAY_NOTES: Cytotoxicity, CellTiter-Glo, THP1-Blue cells
- Format: cell-based, human
- RUN_PARAMETERS: human, THP1-Blue cells; N.T. = no cytotoxicity at 50 µM; read-out: Cytotoxicity IC50 in THP1-Blue Cells
QUANTITY_MEASURED: IC50 at 24 h

Can you look up the measured IC50 at 24 h of COc1cccc(Cc2cc(C)nn(CC(=O)Nc3cccc(Br)c3)c2=O)c1 for me? > 50 µM

Can you look up the measured IC50 at 24 h of CC[C@H](C(=O)Nc1ccc(Br)cc1)n1nc(C)cc(Cc2cccc(OC)c2)c1=O for me? > 50 µM

Next:
// query IC50 at 24 h value for entry COc1cccc(Cc2cc(-c3ccc(Cl)cc3)nn(CC(=O)Nc3ccc(F)cc3)c2=O)c1 > 50 µM

# IC50 at 24 h lookup, item COc1ccc(-c2cc(Cc3cccc(OC)c3)c(=O)n(CC(=O)Nc3ccc(F)cc3)n2)cc1 > 50 µM

Reported IC50 at 24 h, compound CCc1c(C)nn(CC(=O)Nc2ccc(Br)cc2)c(=O)c1Cc1cccc(OC)c1 : ____ > 50 µM

GET /values?readout=IC50 at 24 h&item= COc1cccc(Cc2c(-c3ccccc3)c(C)nn(CC(=O)Nc3ccc(Br)cc3)c2=O)c1 > 50 µM

So what's the measured IC50 at 24 h for this one? COc1cccc(-c2cc(C#N)c(=O)n(CC(=O)Nc3ccc(Br)cc3)c2C)c1 > 50 µM

// returns reported IC50 at 24 h for input O=C(Cn1c(-c2ccc([N+](=O)[O-])cc2)csc1=O)Nc1ccc(Br)cc1 > 50 µM
